# System: SK-MEL-5 melanoma
# Procedure details: NCI-60 one-dose screen, 48 h
# Test parameters: 10 µM unless noted
# Protocol: Growth inhibition of the SK-MEL-5 human tumor cell line is measured as a screen for anti-cancer activity. Cells are grown in 96 well plates and exposed to the test compound for 48 hours. Compounds are tested at a single concentration, which is 10^-5 M for most compounds. The reported endpoint is percent growth (GI% or GIPRCNT), where numbers from 0 - 100% represent growth inhibition, and numbers from -100% - 0 represent cell death. For example, a value of 40 represents 60% growth inhibition. […]
The panel holds about 83,000 compounds, 20% with a hit somewhere; the sample as a whole holds those more often. Calls of active or inactive are those of the source. How the source made its calls: active means growth percent below 10; inactive means the rest.
Labels: active, inactive

• COc1cc(/C=N/O)nc(-c2ccccn2)c1 = active
• O=S(=O)(NCCNc1nccc(-c2c(-c3cccc(O)c3)nc3occn23)n1)c1cccc(F)c1 = inactive
• N#CC1C(C#N)C2c3ccccc3C=CN2C1C(=O)c1ccc(Br)cc1 (stereo not drawn) = inactive
• CN[C@@H](C)C(=O)N[C@H]1CCS[C@H]2CC(C)(C)[C@@H](C(=O)N[C@H]3c4ccccc4C[C@H]3OCC#CC#CCO[C@@H]3Cc4ccccc4[C@@H]3NC(=O)[C@H]3N4C(=O)[C@@H](NC(=O)[C@H](C)NC)CCS[C@H]4CC3(C)C)N2C1=O = inactive
• COc1ccc(/C=C/c2nc(Nc3ccc(S(=O)(=O)NC(C)=O)cc3)c3ccccc3n2)cc1 = inactive
• O=C(/C=C(/C=C/c1coc2ccccc12)OB(F)F)/C=C/c1coc2ccccc12 = inactive
• O=C1OC(Cc2ccccc2)C1c1ccccc1 (stereo not drawn) = inactive
• CCc1ccc(CNc2ccc(N3CCOCC3)c(C(=O)O)c2)cc1 = inactive
• COc1cc2nc(-c3ccc(Cl)cc3)cc(OCCCN3CCC(O)CC3)c2cc1OC = active
• C[C@H]1[C@H](C)CC[C@]2(C(=O)NCC#CCN3CCN(C)CC3)CC[C@]3(C)C(=CC[C@@H]4[C@@]5(C)Cc6c([nH]c7ccccc67)C(C)(C)[C@@H]5CC[C@]43C)[C@H]12 = inactive
• CCCCCCNC(=O)Nc1ccc2cc3ccc(NC(=O)NCCCCCC)cc3nc2c1 = active
• Cc1ccc(-c2csc(NC(=O)CSc3nc(-c4ccccc4)cc(=O)[nH]3)n2)cc1 = inactive
• O=C(CNCCN1CCOCC1)N1c2cccc3cccc(c23)N(C(=O)CNCCN2CCOCC2)C1c1cn(-c2ccccc2)nc1-c1cccc([N+](=O)[O-])c1 = inactive
• C/C(=N\Nc1cc(C)nc2ccc(Br)cc12)c1ccc([N+](=O)[O-])cc1 = inactive
• N/C(=N\C(N)=N\c1nc2ccccc2s1)c1cccc(Cl)c1 = inactive
• Cn1c2ccccc2c2c3c(c4c5ccccc5n(C)c4c21)C(=O)OC3 = inactive
• Cc1nc2sccn2c1-c1cn2ccsc2n1 = inactive
• Cc1ncc(C(=O)Nc2ccc(CN3CCN(C)CC3)c(C(F)(F)F)c2)cc1C#Cc1cnc(N)cc1C#N = active

====

# System: SK-MEL-28 melanoma
# Procedure details: NCI-60 one-dose screen, 48 h (100 = growth as untreated, 0 = no growth, -100 = all killed)
# Test parameters: 10 µM unless noted
About 83,000 compounds went through this panel and 20% of them were active in at least one assay; those are over-represented in the sample as a whole.
Label met when growth is strictly below 80%; otherwise label not met.

- CC(=O)O[C@@H]1C2CCC3C(CC[C@@]4(C)C3CC[C@@H]4C(C)N(C)C)[C@@]2(C)CC[C@@H]1NC(=O)C=C(C)C (some centres undefined): met
- Cn1ccc2c1CC1CN(Cc3ccco3)C(=O)C1C2C(=O)O (centres undefined): not met
- CCCCCCCCCCCCCCCC[N+]1(C)CCN(SN2CC[N+](C)(CCCCCCCCCCCCCCCC)CC2)CC1: not met
- CCCCNC(=O)Oc1ccc(/C(=C(\C)c2ccccc2)c2ccc(OCCN3CCCCC3)cc2)cc1: met
- Nc1nc(Nc2ccccc2SSc2ccccc2Nc2nc(N)nc(-c3cccs3)n2)nc(-c2ccsc2)n1: not met
- COc1ccc(/C=C/c2nc(Nc3ccc(S(=O)(=O)Nc4cc(C)on4)cc3)c3ccccc3n2)cc1: not met
- N#C/C(=C\c1c(-c2ccccc2)[nH]c2ccccc12)C(=O)c1ccc(Cl)cc1: met
- CN1[C@@H]2CC[C@H]1/C(=C\c1ccccc1)C(=O)/C2=C/c1ccccc1: met
